Hey, just so you know, these numbers are from ChEMBL document CHEMBL3734705.

experiment: Cytotoxicity against human PC3 cells assessed as growth level at 10 uM after 48 hrs by SRB assay; format: functional, PC-3
I'd be grateful if you could share measured Activity for these entries.
Express your answer in %, writing the number without its unit.

If you can, please state the reported Activity value of C=C1CC[C@@H]2[C@](C)(COC(C)=O)[C@H](OC(C)=O)CC[C@@]2(C)[C@@H]1CC(Sc1ccccc1)C1=CCOC1=O (mixture of isomers) .
36.43

If you can, please state the reported Activity value of C=C1CC[C@@H]2[C@](C)(COC(C)=O)[C@H](OC(C)=O)CC[C@@]2(C)[C@@H]1CC(NCCCCCCCCCCCCCCCCCC)C1=CCOC1=O (mixture of isomers) .
89.57

If you can, please state the reported Activity value of C=C1CC[C@@H]2[C@](C)(COC(C)=O)[C@H](OC(C)=O)CC[C@@]2(C)[C@@H]1CC(NC1CCCC1)C1=CCOC1=O (some centres not stated) .
44.7

If you can, please state the reported Activity value of C=C1CC[C@@H]2[C@](C)(COC(C)=O)[C@H](OC(C)=O)CC[C@@]2(C)[C@@H]1CC(NCc1cccc(Cl)c1)C1=CCOC1=O (mixture of isomers) .
30.08

If you can, please state the reported Activity value of C=C1CC[C@@H]2[C@](C)(COC(C)=O)[C@H](OC(C)=O)CC[C@@]2(C)[C@@H]1CC(NCc1ccc(F)cc1)C1=CCOC1=O (mixture of isomers) .
20.82

If you can, please state the reported Activity value of C=C1CC[C@@H]2[C@](C)(COC(C)=O)[C@H](OC(C)=O)CC[C@@]2(C)[C@@H]1CC(NCc1ccccc1)C1=CCOC1=O (mixture of isomers) .
10.07

If you can, please state the reported Activity value of C=C1CC[C@@H]2[C@](C)(COC(C)=O)[C@H](OC(C)=O)CC[C@@]2(C)[C@@H]1CC(Nc1ccc(S(=O)(=O)NC(C)=O)cc1)C1=CCOC1=O (mixture of isomers) .
0.69

If you can, please state the reported Activity value of C=C1CC[C@@H]2[C@](C)(CO)[C@H](O)CC[C@@]2(C)[C@@H]1C/C=C1/C(=O)OC[C@H]1O [ANDROGRAPHOLIDE] .
93.4

If you can, please state the reported Activity value of C=C1CC[C@@H]2[C@](C)(COC(C)=O)[C@H](OC(C)=O)CC[C@@]2(C)[C@@H]1CC(NC1CC1)C1=CCOC1=O (mixture of isomers) .
77.06

If you can, please state the reported Activity value of C=C1CC[C@@H]2[C@](C)(COC(C)=O)[C@H](OC(C)=O)CC[C@@]2(C)[C@@H]1CC(NCCCCCCCC)C1=CCOC1=O (mixture of isomers) .
33.69

If you can, please state the reported Activity value of C=C1CC[C@@H]2[C@](C)(COC(C)=O)[C@H](OC(C)=O)CC[C@@]2(C)[C@@H]1CC(NCCCC)C1=CCOC1=O (mixture of isomers) .
51.19

If you can, please state the reported Activity value of C=C1CC[C@@H]2[C@](C)(COC(C)=O)[C@H](OC(C)=O)CC[C@@]2(C)[C@@H]1C/C=C1/C(=O)OC[C@H]1OC(C)=O .
88.46

---

tested on: NCI-H322M; test: Cytotoxicity against human NCI-H322M cells assessed as growth inhibition at 10 uM after 48 hrs by SRB assay; assay type: functional; settings: read-out: GI
I'd be grateful if you could share measured inhibition of growth at 10 µM for these entries.
Express your answer in %, writing the number without its unit.

If you can, please state the reported inhibition of growth at 10 µM value of C=C1CC[C@@H]2[C@](C)(COC(C)=O)[C@H](OC(C)=O)CC[C@@]2(C)[C@@H]1CC(NCc1ccccc1)C1=CCOC1=O (mixture of isomers) .
23

If you can, please state the reported inhibition of growth at 10 µM value of C=C1CC[C@@H]2[C@](C)(CO)[C@H](O)CC[C@@]2(C)[C@@H]1C/C=C1/C(=O)OC[C@H]1O [ANDROGRAPHOLIDE] .
7.26

If you can, please state the reported inhibition of growth at 10 µM value of C=C1CC[C@@H]2[C@](C)(COC(C)=O)[C@H](OC(C)=O)CC[C@@]2(C)[C@@H]1CC(NCc1cccc(Cl)c1)C1=CCOC1=O (mixture of isomers) .
24.6

If you can, please state the reported inhibition of growth at 10 µM value of C=C1CC[C@@H]2[C@](C)(COC(C)=O)[C@H](OC(C)=O)CC[C@@]2(C)[C@@H]1CC(NCc1ccc(F)cc1)C1=CCOC1=O (mixture of isomers) .
27.5

If you can, please state the reported inhibition of growth at 10 µM value of C=C1CC[C@@H]2[C@](C)(COC(C)=O)[C@H](OC(C)=O)CC[C@@]2(C)[C@@H]1CC(NCCCCCCCC)C1=CCOC1=O (mixture of isomers) .
1.99

If you can, please state the reported inhibition of growth at 10 µM value of C=C1CC[C@@H]2[C@](C)(COC(C)=O)[C@H](OC(C)=O)CC[C@@]2(C)[C@@H]1CC(NCCCC)C1=CCOC1=O (mixture of isomers) .
3.78

---

test system: EKVX; assay: Cytotoxicity against human EKVX cells assessed as growth inhibition at 10 uM after 48 hrs by SRB assay; format: functional; conditions: read-out: GI
Decision: inhibition of growth at 10 µM >= 30% yields met, all other cases yield not met.

Is inhibition of growth at 10 µM for C=C1CC[C@@H]2[C@](C)(COC(C)=O)[C@H](OC(C)=O)CC[C@@]2(C)[C@@H]1CC(NC1CCCC1)C1=CCOC1=O (stereo partly specified) at or above 30%?
met

Is inhibition of growth at 10 µM for C=C1CC[C@@H]2[C@](C)(COC(C)=O)[C@H](OC(C)=O)CC[C@@]2(C)[C@@H]1CC(NCc1cccc(Cl)c1)C1=CCOC1=O (mixture of isomers) at or above 30%?
not met

Is inhibition of growth at 10 µM for C=C1CC[C@@H]2[C@](C)(COC(C)=O)[C@H](OC(C)=O)CC[C@@]2(C)[C@@H]1CC(NCCCC)C1=CCOC1=O (mixture of isomers) at or above 30%?
not met

Is inhibition of growth at 10 µM for C=C1CC[C@@H]2[C@](C)(COC(C)=O)[C@H](OC(C)=O)CC[C@@]2(C)[C@@H]1CC(NCc1ccccc1)C1=CCOC1=O (mixture of isomers) at or above 30%?
met

Is inhibition of growth at 10 µM for C=C1CC[C@@H]2[C@](C)(COC(C)=O)[C@H](OC(C)=O)CC[C@@]2(C)[C@@H]1CC(NCCCCCCCC)C1=CCOC1=O (mixture of isomers) at or above 30%?
not met

Is inhibition of growth at 10 µM for C=C1CC[C@@H]2[C@](C)(COC(C)=O)[C@H](OC(C)=O)CC[C@@]2(C)[C@@H]1CC(NCc1ccc(F)cc1)C1=CCOC1=O (mixture of isomers) at or above 30%?
met

---

system: M14; test: Cytotoxicity against human M14 cells assessed as growth level at 10 uM after 48 hrs by SRB assay; assay type: functional
Decision: Activity >= 40% yields condition met, all other cases yield condition not met.

Is Activity for C=C1CC[C@@H]2[C@](C)(COC(C)=O)[C@H](OC(C)=O)CC[C@@]2(C)[C@@H]1CC(NCc1ccccc1)C1=CCOC1=O (mixture of isomers) at or above 40%?
condition met

Is Activity for C=C1CC[C@@H]2[C@](C)(COC(C)=O)[C@H](OC(C)=O)CC[C@@]2(C)[C@@H]1CC(NC1CCCC1)C1=CCOC1=O (stereo partly specified) at or above 40%?
condition met

Is Activity for C=C1CC[C@@H]2[C@](C)(COC(C)=O)[C@H](OC(C)=O)CC[C@@]2(C)[C@@H]1CC(Nc1ccc(S(=O)(=O)NC(C)=O)cc1)C1=CCOC1=O (mixture of isomers) at or above 40%?
condition not met

Is Activity for C=C1CC[C@@H]2[C@](C)(COC(C)=O)[C@H](OC(C)=O)CC[C@@]2(C)[C@@H]1CC(NC1CC1)C1=CCOC1=O (mixture of isomers) at or above 40%?
condition met

Is Activity for C=C1CC[C@@H]2[C@](C)(COC(C)=O)[C@H](OC(C)=O)CC[C@@]2(C)[C@@H]1CC(NCCCCCCCCCCCCCCCCCC)C1=CCOC1=O (mixture of isomers) at or above 40%?
condition met

Is Activity for C=C1CC[C@@H]2[C@](C)(COC(C)=O)[C@H](OC(C)=O)CC[C@@]2(C)[C@@H]1CC(Sc1ccccc1)C1=CCOC1=O (mixture of isomers) at or above 40%?
condition not met

---

test system: SN12C; experiment: Cytotoxicity against human SN12C cells assessed as growth inhibition at 10 uM after 48 hrs by SRB assay; type: functional; conditions: read-out: GI
I'd be grateful if you could share measured inhibition of growth at 10 µM for these entries.
Mention the unit after the number when you answer.

// fetch SN12C inhibition of growth at 10 µM for C=C1CC[C@@H]2[C@](C)(COC(C)=O)[C@H](OC(C)=O)CC[C@@]2(C)[C@@H]1CC(NCCCCCCCC)C1=CCOC1=O (mixture of isomers)
26.9%

// fetch SN12C inhibition of growth at 10 µM for C=C1CC[C@@H]2[C@](C)(COC(C)=O)[C@H](OC(C)=O)CC[C@@]2(C)[C@@H]1CC(NCCCC)C1=CCOC1=O (mixture of isomers)
10.2%

// fetch SN12C inhibition of growth at 10 µM for C=C1CC[C@@H]2[C@](C)(COC(C)=O)[C@H](OC(C)=O)CC[C@@]2(C)[C@@H]1CC(NC1CCCC1)C1=CCOC1=O (stereo partly drawn)
21.5%

// fetch SN12C inhibition of growth at 10 µM for C=C1CC[C@@H]2[C@](C)(COC(C)=O)[C@H](OC(C)=O)CC[C@@]2(C)[C@@H]1C/C=C1/C(=O)OC[C@H]1OC(C)=O
66.6%

// fetch SN12C inhibition of growth at 10 µM for C=C1CC[C@@H]2[C@](C)(CO)[C@H](O)CC[C@@]2(C)[C@@H]1C/C=C1/C(=O)OC[C@H]1O [ANDROGRAPHOLIDE]
18.3%

// fetch SN12C inhibition of growth at 10 µM for C=C1CC[C@@H]2[C@](C)(COC(C)=O)[C@H](OC(C)=O)CC[C@@]2(C)[C@@H]1CC(NCc1ccccc1)C1=CCOC1=O (mixture of isomers)
41.8%

// fetch SN12C inhibition of growth at 10 µM for C=C1CC[C@@H]2[C@](C)(COC(C)=O)[C@H](OC(C)=O)CC[C@@]2(C)[C@@H]1CC(NCc1cccc(Cl)c1)C1=CCOC1=O (mixture of isomers)
37.9%

// fetch SN12C inhibition of growth at 10 µM for C=C1CC[C@@H]2[C@](C)(COC(C)=O)[C@H](OC(C)=O)CC[C@@]2(C)[C@@H]1CC(NCc1ccc(F)cc1)C1=CCOC1=O (mixture of isomers)
53.8%
